# assay-text: Pharmacokinetics test, oral capsules, plasma concentration by LC-MS/MS
# Type: in vivo
# measurement-parameters: male Beagle dogs, oral capsule, 5 mg/kg
experimental-endpoint: Cmax (µg/mL)

>>> test_result("NC(=O)[C@@H]1C[C@H](F)CN1Cc1ccc(OCc2cccc(F)c2)cc1 [Compound represented by formula (I)]")
0.256
>>> test_result("NC(=O)[C@@H]1C[C@H](F)CN1Cc1ccc(OCc2cccc(F)c2)cc1 [Example 2]")
0.415
>>> test_result("NC(=O)[C@@H]1C[C@H](F)CN1Cc1ccc(OCc2cccc(F)c2)cc1 [Example 8]")
0.143
>>> test_result("NC(=O)[C@@H]1C[C@H](F)CN1Cc1ccc(OCc2cccc(F)c2)cc1 [Example 9]")
0.151
>>> test_result("NC(=O)[C@@H]1C[C@H](F)CN1Cc1ccc(OCc2cccc(F)c2)cc1 [Example 10]")
0.162
